# study_target: diverse set of kinases (Homo sapiens, UniProt P24941)
# Construct: IC50 CDK2; other: kinase CDK2
# protocol_details: Protein kinase selectivity: IC50 against a diverse set of kinases, compared with URMC-099
# Assay type: biochemical
# setup_conditions: kinase CDK2
endpoint_name: IC50 (µM)
Your answer should be a plain number; it is taken to be in µM.

Sample records with IC50:
- compound: "COc1cc2cc(-c3cnc4ccc(N[C@H]5CC[C@H](O)CC5)nn34)sc2cc1OC"
  endpoint_name: "IC50"
  quantitative_readout: 8.26
- compound: "CN1CCN(Cc2ccc(-c3cnc4[nH]cc(-c5ccc6[nH]ccc6c5)c4c3)cc2)CC1 [URMC-099, reference compound]"
  endpoint_name: "IC50"
  quantitative_readout: 1.18

Please examine the following record next.
Ask | Fill in IC50 for record O[C@H]1CC[C@H](Nc2ccc3ncc(-c4cc5ccccc5s4)n3n2)CC1
Reply | 1.03
